- System: SARS-CoV-2
- ASSAY OVERVIEW: microbe, parasite or virus in culture
- Format: functional, organism-based, Chlorocebus sabaeus, Vero C1008
- MEASUREMENT PARAMETERS: Severe acute respiratory syndrome coronavirus 2, Vero C1008, 48 h
Counter-ions that a name gives are not always drawn.
Kindly supply the reported IC50 values for the records listed here.
Kindly provide the numeric value in µM only, without the unit symbol.

Which value of IC50 has been reported for CC(C)(C)c1ccccc1Oc1ncccc1NC(=O)Nc1ccc(OC(F)(F)F)cc1 in the records?
7

Which value of IC50 has been reported for O=C(c1ccc(OCCN2CCCCC2)cc1)c1c(-c2ccc(O)cc2)sc2cc(O)ccc12 [RALOXIFENE HYDROCHLORIDE] in the records?
15.4

Which value of IC50 has been reported for O=C(C1CC1)N1CC[C@@H](Cc2n[nH]c(=O)n2-c2ccc(-c3ccc4occc4c3)cc2)C1 in the records?
17

Which value of IC50 has been reported for Cc1cc2c(F)c(Oc3ncnn4cc(OC[C@@H](C)OC(=O)[C@H](C)N)c(C)c34)ccc2[nH]1 [BRIVANIB ALANINATE] in the records?
6.5

Which value of IC50 has been reported for Nc1c(C(=O)NCc2ccco2)c2nc3ccccc3nc2n1CCN1CCCCC1 in the records?
31.2

Which value of IC50 has been reported for CC[C@@]1([C@H]2O[C@H]([C@H]3O[C@@](O)(CO)[C@H](C)C[C@@H]3C)C[C@H]2C)CC[C@H]([C@@]2(C)CC[C@]3(C[C@H](O)[C@@H](C)[C@@H]([C@H](C)[C@H](OC)[C@@H](C)C(=O)O)O3)O2)O1 [MONENSIN SODIUM] in the records?
3.18

Which value of IC50 has been reported for COCCNCc1ccc(-c2cc3nccc(Oc4ccc(NC(=S)NC(=O)Cc5ccc(F)cc5)cc4F)c3s2)nc1 in the records?
1.04

Which value of IC50 has been reported for CNC(=O)Nc1ccc(-c2nc(N3CC4CCC(C3)O4)c3cnn(C4CCC5(CC4)OCCO5)c3n2)cc1 in the records?
21.6

Which value of IC50 has been reported for Nc1ncnc2c1c(-c1cnc3[nH]ccc3c1)nn2C1CCCC1 in the records?
11.8

Which value of IC50 has been reported for Cc1cnc(Nc2ccc(F)cc2Cl)nc1-c1c[nH]c(C(=O)N[C@H](CO)c2cccc(Cl)c2)c1 in the records?
5.54

Which value of IC50 has been reported for CC(C)C[C@H](NC(=O)[C@@H](NC(=O)c1cccc(-c2ccccc2)n1)[C@@H](C)O)B(O)O in the records?
1.3
